# protocol notes: Evaluation of conversion rate to active form in buffer solution (Experimental Example 1)
# Assay type: physicochemical
# condition: pH5.0, 0 hr
assay metric: Residual rate (%)
// note: answer is a bare numeric in %

Worked cases, answers included:
* CNC(=O)O[C@@H]1CN(C)CC[C@@H]1c1c(O)cc(O)c2c(=O)cc(-c3ccccc3Cl)oc12 [Comparative Example 5, reference compound] | 93.9
* CCOC(=O)O[C@@H]1CN(C)CC[C@@H]1c1c(O)cc(O)c2c(=O)cc(-c3ccccc3Cl)oc12 [Comparative Example 3, reference compound] | 90.6
* CN1CC[C@H](c2c(O)cc(O)c3c(=O)cc(-c4ccccc4Cl)oc23)[C@H](OC(=O)[C@@H](N)CO)C1 [Comparative Example 9, reference compound] | 85.7

Query: Specify measured Residual rate for CN1CC[C@H](c2c(OC(=O)N(C)CCN)cc(O)c3c(=O)cc(-c4ccccc4Cl)oc23)[C@H](O)C1 [Comparative Example 13, reference compound] .
Response: 99.8

Query: Annotate the compound CNCCN(C)C(=O)Oc1cc(O)c2c(=O)cc(-c3ccccc3Cl)oc2c1[C@H]1CCN(C)C[C@H]1O [Comparative Example 14, reference compound] with its measured Residual rate.
Response: 97.3

Query: Give the reported Residual rate for this compound. CN1CC[C@H](c2c(O)cc(O)c3c(=O)cc(-c4ccccc4Cl)oc23)[C@H](OC(=O)CN)C1 [Comparative Example 8, reference compound]
Response: 83.4

Query: Please indicate Residual rate recorded for CCNC(=O)O[C@@H]1CN(C)CC[C@@H]1c1c(O)cc(O)c2c(=O)cc(-c3ccccc3Cl)oc12 [Comparative Example 4, reference compound]
Response: 97.7

Query: Specify measured Residual rate for C[C@H](N)C(=O)O[C@@H]1CN(C)CC[C@@H]1c1c(O)cc(O)c2c(=O)cc(-c3ccccc3Cl)oc12 [Comparative Example 7, reference compound] .
Response: 96.8

Query: Annotate the compound CNC(=O)Oc1cc(O)c2c(=O)cc(-c3ccccc3Cl)oc2c1[C@H]1CCN(C)C[C@H]1O [Comparative Example 2, reference compound] with its measured Residual rate.
Response: 96.6

Query: Supply reported Residual rate belonging to this compound: CC(C)[C@H](N)C(=O)O[C@@H]1CN(C)CC[C@@H]1c1c(O)cc(O)c2c(=O)cc(-c3ccccc3Cl)oc12 [Comparative Example 10, reference compound]
Response: 93.4

Where do these numbers come from? They come from patent US12617779B2.
